Assay: Toxicity in HEK293 cells assessed as inhibition of cell viability after 72 hrs by MTT assay
Assay type: cell-based
Conditions: human
Measurement Name: IC50 at 72 h

Please supply the value of reported IC50 at 72 h for the item COc1ccc(-c2ccc(/C=C3/NC(=S)NC3=O)s2)cn1
> 50 µM

----------
Target: UniProtKB P11387
Sequence (P11387 whole entry): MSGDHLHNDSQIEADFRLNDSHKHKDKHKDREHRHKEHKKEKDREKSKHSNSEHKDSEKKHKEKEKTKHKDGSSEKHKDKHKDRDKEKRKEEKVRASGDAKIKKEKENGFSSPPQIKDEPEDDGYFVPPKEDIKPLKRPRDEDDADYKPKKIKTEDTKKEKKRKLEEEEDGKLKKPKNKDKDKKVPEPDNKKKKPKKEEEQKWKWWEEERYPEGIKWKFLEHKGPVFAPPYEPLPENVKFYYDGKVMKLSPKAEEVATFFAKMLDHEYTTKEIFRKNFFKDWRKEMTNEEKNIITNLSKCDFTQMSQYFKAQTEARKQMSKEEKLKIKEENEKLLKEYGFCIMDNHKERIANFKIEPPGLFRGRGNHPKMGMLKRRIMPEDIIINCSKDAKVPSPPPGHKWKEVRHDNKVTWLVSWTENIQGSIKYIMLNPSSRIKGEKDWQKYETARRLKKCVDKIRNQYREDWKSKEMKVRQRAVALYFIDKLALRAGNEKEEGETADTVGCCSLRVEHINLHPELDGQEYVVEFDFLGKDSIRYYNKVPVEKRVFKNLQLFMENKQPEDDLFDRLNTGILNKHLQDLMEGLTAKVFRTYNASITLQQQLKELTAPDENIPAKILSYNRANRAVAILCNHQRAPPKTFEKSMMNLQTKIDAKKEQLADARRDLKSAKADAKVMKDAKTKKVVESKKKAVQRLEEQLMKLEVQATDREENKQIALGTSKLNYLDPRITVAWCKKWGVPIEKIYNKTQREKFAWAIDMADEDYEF
Test: Inhibition of wild type recombinant human Top1 expressed in baculovirus infected insect Sf9 cells assessed as decrease in supercoiled pBS(SK+) DNA isomer relaxation preincubated for 5 mins followed by pBS(SK+) DNA addition by agarose gel electrophoresis
Measurement Name: EC50

Study these solved cases before continuing.
INSERT INTO assay_data (record_smiles, value_observed) VALUES
  ('COc1ccc(/C=C2/NC(=S)NC2=O)cc1', '> 100 µM'),
  ('O=C1NC(=S)N/C1=C/c1cc(Br)cs1', '> 100 µM'),
  ('COc1ccc(/C=C2/NC(=O)NC2=O)cc1OC', '> 100 µM'),
  ('COc1ccc(-c2csc(/C=C3/NC(=S)NC3=O)c2)cn1', '30.3 µM'),
  ('O=C1NC(=S)N/C1=C/c1ccc(-c2cccnc2)s1', '27.7 µM');

Report EC50 on UniProtKB P11387 for this entry: O=C1NC(=S)N/C1=C/c1ccc([N+](=O)[O-])cc1
> 100 µM

GET EC50 | system: UniProtKB P11387 | item: COc1ccc(-c2ccc(/C=C3/NC(=S)NC3=O)s2)cn1
10.1 µM

Find the measured EC50 of COc1ccc(/C=C2/NC(=O)NC2=O)cc1C with UniProtKB P11387 as test system.
> 100 µM

System UniProtKB P11387. Read-out EC50. Item COc1ccc(-c2ccc(/C=C3/NC(=O)NC3=O)s2)cn1 . Report value.
> 100 µM

For UniProtKB P11387, give the measured EC50 of the entry COc1cccc(/C=C2/NC(=S)NC2=O)c1
> 100 µM

----------
Test system: MCF7
Experiment: Cytotoxicity against human MCF7 cells assessed as inhibition of cell viability after 72 hrs by MTT assay
Type: functional, cell-based
Conditions: MCF7, 72 h
Measurement Name: pIC50
The read-out pIC50 is expressed as -log10 of concentration in moles per litre.

Give pIC50 for COc1ccc(-c2ccc(/C=C3/NC(=S)NC3=O)s2)cn1
4.94

----------
Attribute: pEC50
Target: DNA topoisomerase 1 (Homo sapiens, UniProt P11387)
Test: Inhibition of wild type recombinant human Top1 expressed in baculovirus infected insect Sf9 cells assessed as decrease in supercoiled pBS(SK+) DNA isomer relaxation preincubated for 5 mins followed by pBS(SK+) DNA addition by agarose gel electrophoresis
pEC50: −log10 of the molar value.

The following compounds have reported results that may help.
INSERT INTO measurements (record_smiles, value_observed) VALUES
  ('COc1ccc(-c2csc(/C=C3/NC(=O)NC3=O)c2)cn1', '< 4.00'),
  ('Cc1cc(C)cc(/C=C2/NC(=O)NC2=O)c1', '< 4.00'),
  ('Cc1ccc(/C=C2/NC(=S)NC2=O)cc1', '< 4.00');

Supply recorded pEC50 for COc1ccc(/C=C2/NC(=S)NC2=O)cc1C here.
< 4.00

State its pEC50: COc1cc(/C=C2/NC(=S)NC2=O)cc(OC)c1OC
4.03

Complete the entry with pEC50 for O=C1NC(=O)/C(=C\c2cc(Br)cs2)N1
< 4.00

Give pEC50 for Cc1ccc(/C=C2/NC(=O)NC2=O)cc1
< 4.00

----------
Target: DNA topoisomerase 1 (Homo sapiens, UniProt P11387)
Sequence (P11387 whole entry): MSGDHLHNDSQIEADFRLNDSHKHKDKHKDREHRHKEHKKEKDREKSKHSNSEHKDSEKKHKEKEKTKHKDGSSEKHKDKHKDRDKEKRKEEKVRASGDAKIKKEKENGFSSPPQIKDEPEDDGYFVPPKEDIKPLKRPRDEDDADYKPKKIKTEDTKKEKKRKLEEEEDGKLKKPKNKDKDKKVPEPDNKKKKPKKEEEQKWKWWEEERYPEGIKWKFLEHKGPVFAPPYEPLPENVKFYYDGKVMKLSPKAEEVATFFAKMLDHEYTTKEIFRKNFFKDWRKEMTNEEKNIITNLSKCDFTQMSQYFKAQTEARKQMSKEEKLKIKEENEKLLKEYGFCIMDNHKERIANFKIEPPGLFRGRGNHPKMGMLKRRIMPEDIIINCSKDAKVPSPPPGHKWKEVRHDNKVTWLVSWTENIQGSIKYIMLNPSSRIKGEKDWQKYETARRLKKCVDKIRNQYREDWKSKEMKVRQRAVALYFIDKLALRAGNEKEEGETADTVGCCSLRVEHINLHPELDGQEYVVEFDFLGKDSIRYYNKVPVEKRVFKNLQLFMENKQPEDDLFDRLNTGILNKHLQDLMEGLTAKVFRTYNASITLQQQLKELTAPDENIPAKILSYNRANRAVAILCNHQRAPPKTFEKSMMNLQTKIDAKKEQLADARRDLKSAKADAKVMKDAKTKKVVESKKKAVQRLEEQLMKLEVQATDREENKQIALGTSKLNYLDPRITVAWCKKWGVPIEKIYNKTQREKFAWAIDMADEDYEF
Assay: Inhibition of wild type recombinant human Top1 expressed in baculovirus infected insect Sf9 cells assessed as decrease in supercoiled pBS(SK+) DNA isomer relaxation preincubated for 5 mins followed by pBS(SK+) DNA addition by agarose gel electrophoresis
pEC50: −log10 of the molar value.
Measurement Name: pEC50

The cases that follow already have their pEC50 on record.
INSERT INTO results (record_smiles, measurement_name, value_observed) VALUES
  ('Cn1cc(/C=C2/NC(=S)NC2=O)c2ccccc21', 'pEC50', 4.31),
  ('COc1ccc(/C=C2/NC(=S)NC2=O)cc1OC', 'pEC50', '< 4.00');

Please look at this compound and report its pEC50: COc1cc(/C=C2/NC(=O)NC2=O)cc(OC)c1OC
< 4.00
